The reported numbers originate from the supplement of paper PMC4862054.

// reported normalised response for each item listed
Tested on: MDA-MB-436
Assay: normalised response (% of control), CellTox Green; higher = less cell death (100 = DMSO, 0 = benzethonium chloride kill control)
Conditions: incubation time: 72 h
Express it in %; write the number only.

Examples with their reported normalised response follow.
S=P(N1CC1)(N1CC1)N1CC1 [Thio-TEPA] (5000 nM) | 94.6
COc1cc2c(NC3CCN(C(C)C)CC3)nc(N3CCC(F)(F)CC3)nc2cc1OCCCN1CCCC1 [UNC0642] (1000 nM) | 61.8

Query block: Hello, I am looking for reported normalised response with MDA-MB-436 for CCn1c(-c2nonc2N)nc2cnc(Oc3cccc(NC(=O)c4ccc(OCCN5CCOCC5)cc4)c3)cc21 (10000 nM) . Could you help?
Result block: 74.1

Query block: Hello, I am looking for reported normalised response with MDA-MB-436 for CCn1c(-c2nonc2N)nc2cnc(Oc3cccc(NC(=O)c4ccc(OCCN5CCOCC5)cc4)c3)cc21 (1000 nM) . Could you help?
Result block: 88.7
